The reported measurements were obtained from PubChem BioAssay (EPA / NIEHS).

# Read-out: JUN Transcription Factor, JUN (gene 3725)
# MEASUREMENT PROTOCOL: LTEA_HepaRG_JUN: Life Technologies and Expression Analysis (LTEA) Assay for JUN Transcription Factor using HepaRG (AID 2283513)
# TEST SETTINGS: mRNA level, 48 h; actives raise or lower the signal
# Method: LTEA_HepaRG is a cell based, multiplexed-readout assay that uses HepaRG, a human liver cell line, with measurements taken at 48 hours after chemical dosing on a 96-well plate.LTEA_HepaRG_JUN is one of 102 assay component(s) measured in the LTEA HepaRG cell culture assay. It is a marker of Cell proliferation, survival, death.Data from the assay component LTEA_HepaRG_JUN was analyzed into 1 endpoint. […]
Activity calls are given as the source filed them. The calls were made as follows: active = hit-call score of the fitted dose curve at least 0.9, where 1 is the maximum; inactive = score below 0.9.
Hello, when you answer, please use one of the following outcomes: 1 = active, 0 = inactive

Reference set, count: 6
What is the recorded call for this compound in the test? "O=C(Nc1ccc([N+](=O)[O-])cc1Cl)c1cc(Cl)ccc1O"
1

What is the recorded call for this compound in the test? "CCCCOC(=O)[C@@H](C)Oc1ccc(Oc2ccc(C(F)(F)F)cn2)cc1"
0

What is the recorded call for this compound in the test? CCC(C)OC(=O)N1CCCCC1CCO (centres undefined)
0

What is the recorded call for this compound in the test? "C[C@]12C[C@H](O)[C@H]3[C@@H](CCC4=CC(=O)CC[C@@]43C)[C@@H]1CC[C@@H]2C(=O)CO"
0

What is the recorded call for this compound in the test? "CCSC(=O)N(CC(C)C)CC(C)C"
0

What is the recorded call for this compound in the test? CCOC(=O)C(C)Oc1ccc(Oc2nc3ccc(Cl)cc3o2)cc1 (centres undefined)
0

Others:
What is the recorded call for this compound in the test? "CC(=O)[C@H]1CC[C@H]2[C@@H]3CCC4=CC(=O)CC[C@]4(C)[C@H]3CC[C@]12C"
1

What is the recorded call for this compound in the test? "O=C(O)C1(C(=O)Nc2ccc(Cl)cc2Cl)CC1"
0

* * *

# MEASUREMENT PROTOCOL: APR_HepG2_MitoMembPot_72hr: Apredica 72-hour HepG2 Assay for Mitochondrial Membrane Potential (AID 2282917)
# TEST SETTINGS: imaging, actives raise or lower the signal
The source made the active and inactive calls. How the source made its calls: active means hit-call score of the fitted dose curve at least 0.9, where 1 is the maximum; inactive means score below 0.9.
Hello, when you answer, please use one of the following outcomes: active, inactive

What is the recorded call for this compound in the test? "CCOC(=O)COc1cc(-n2ncc(C(F)(F)F)c(C)c2=O)c(F)cc1Cl"
inactive

What is the recorded call for this compound in the test? "COCCO"
inactive

What is the recorded call for this compound in the test? CCCCC(CC)COC(=O)c1ccccc1C(=O)O (configuration not stated)
inactive

What is the recorded call for this compound in the test? "CCNc1nc(N)nc(Cl)n1"
inactive

What is the recorded call for this compound in the test? "COC(=O)c1ccccc1S(=O)(=O)NC(=O)Nc1nc(OC(F)F)cc(OC(F)F)n1"
inactive

What is the recorded call for this compound in the test? "CCOC(=O)c1ccc(O)cc1"
inactive

What is the recorded call for this compound in the test? "COC(=O)c1cccc(C)c1S(=O)(=O)NC(=O)Nc1nc(OCC(F)(F)F)nc(N(C)C)n1"
active

What is the recorded call for this compound in the test? "CCOC(=O)[C@H](C)Oc1ccc(Oc2nc3ccc(Cl)cc3o2)cc1"
inactive

Others:
What is the recorded call for this compound in the test? "C#CCOC(=O)[C@@H](C)Oc1ccc(Oc2ncc(Cl)cc2F)cc1"
inactive

What is the recorded call for this compound in the test? "CC(C)CCCCCCc1ccc(O)cc1"
inactive

What is the recorded call for this compound in the test? "O=C(Nc1ccc([N+](=O)[O-])cc1Cl)c1cc(Cl)ccc1O"
active

What is the recorded call for this compound in the test? "CCCOC(=O)NCCCN(C)C"
inactive
